Recorded values, source patent US20240294914A1.

Kindly supply the reported Editing Efficiency 2 (%) values for the records listed here.
- Test system: HBV genome in HEK293T cells transduced with a lentiviral vector
- protocol: Base editing efficiency in Hek293-lentiHBV system (PCR amplicons sequenced on MiSeq)
- Format: cell-based, Hepatitis B virus
- Design: concentration or dose not given beside the values
- measurement.context: replicate 2, base editor Cas12b-ABE, plasmid transfection, four days
Strand notation (5' to 3'): a small letter for the sugar, then the base; units joined by * are phosphorothioate-linked, units joined directly phosphodiester-linked; [ ] holds rarer units or linkages, { } end groups; capitals alone tell only the bases. m = 2'-O-methyl; r = 2'-OH (RNA)
Answers are plain numbers, in %.

In: What measured Editing Efficiency 2 (%) goes with cas12b-42: guide RNA SEQ ID NO: 384 (nucleic acid) guide: mG*mU*mU*rCrUrGrUrCrUrUrUrUrGrGrUrCrArGrGrArCrArArCrCrGrUrCrUrArGrCrUrArUrArArGrUrGrCrUrGrCrArGrGrGrUrGrUrGrArGrArArArCrUrCrCrUrArUrUrGrCrUrGrGrArCrGrArUrGrUrCrUrCrUrUrArCrGrArGrGrCrArUrUrArGrCrArCrGrGrArGrCrUrArCrUrGrUrGrGrArGrUrUrArCrU ?
Out: 23.94

In: What measured Editing Efficiency 2 (%) goes with cas12b-124: guide RNA SEQ ID NO: 389 (nucleic acid) guide: mG*mU*mU*rCrUrGrUrCrUrUrUrUrGrGrUrCrArGrGrArCrArArCrCrGrUrCrUrArGrCrUrArUrArArGrUrGrCrUrGrCrArGrGrGrUrGrUrGrArGrArArArCrUrCrCrUrArUrUrGrCrUrGrGrArCrGrArUrGrUrCrUrCrUrUrArCrGrArGrGrCrArUrUrArGrCrArCrCrCrGrGrGrCrArArCrGrGrGrGrUrArArArGrGrU ?
Out: 11.78

In: What measured Editing Efficiency 2 (%) goes with cas12b-147: guide RNA SEQ ID NO: 386 (nucleic acid) guide: mG*mU*mU*rCrUrGrUrCrUrUrUrUrGrGrUrCrArGrGrArCrArArCrCrGrUrCrUrArGrCrUrArUrArArGrUrGrCrUrGrCrArGrGrGrUrGrUrGrArGrArArArCrUrCrCrUrArUrUrGrCrUrGrGrArCrGrArUrGrUrCrUrCrUrUrArCrGrArGrGrCrArUrUrArGrCrArCrGrArGrGrArCrArArArCrGrGrGrCrArArCrArUrA ?
Out: 4.44

In: What measured Editing Efficiency 2 (%) goes with cas12b-11: guide RNA SEQ ID NO: 381 (nucleic acid) guide: mG*mU*mU*rCrUrGrUrCrUrUrUrUrGrGrUrCrArGrGrArCrArArCrCrGrUrCrUrArGrCrUrArUrArArGrUrGrCrUrGrCrArGrGrGrUrGrUrGrArGrArArArCrUrCrCrUrArUrUrGrCrUrGrGrArCrGrArUrGrUrCrUrCrUrUrArCrGrArGrGrCrArUrUrArGrCrArCrCrArCrCrUrGrUrArUrUrCrCrCrArUrCrCrCrArU ?
Out: 60.28

Further cases:
In: What measured Editing Efficiency 2 (%) goes with cas12b-17: guide RNA SEQ ID NO: 382 (nucleic acid) guide: mG*mU*mU*rCrUrGrUrCrUrUrUrUrGrGrUrCrArGrGrArCrArArCrCrGrUrCrUrArGrCrUrArUrArArGrUrGrCrUrGrCrArGrGrGrUrGrUrGrArGrArArArCrUrCrCrUrArUrUrGrCrUrGrGrArCrGrArUrGrUrCrUrCrUrUrArCrGrArGrGrCrArUrUrArGrCrArCrGrGrGrGrCrCrArArGrUrCrUrGrUrArCrArGrCrA ?
Out: 34.50
